Biological target: UniProtKB Q9H7B4
Sequence (Q9H7B4 whole entry): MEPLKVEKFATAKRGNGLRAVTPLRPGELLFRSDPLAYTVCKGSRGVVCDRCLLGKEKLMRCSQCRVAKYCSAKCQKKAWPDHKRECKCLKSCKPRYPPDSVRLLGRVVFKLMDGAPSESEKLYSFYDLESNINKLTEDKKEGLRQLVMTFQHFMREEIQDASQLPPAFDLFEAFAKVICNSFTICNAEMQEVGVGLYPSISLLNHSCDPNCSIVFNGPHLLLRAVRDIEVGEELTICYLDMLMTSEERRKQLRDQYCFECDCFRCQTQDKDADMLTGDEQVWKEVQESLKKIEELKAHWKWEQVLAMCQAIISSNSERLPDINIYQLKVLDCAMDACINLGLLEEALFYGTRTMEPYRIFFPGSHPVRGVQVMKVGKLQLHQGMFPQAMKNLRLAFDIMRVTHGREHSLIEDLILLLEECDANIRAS
pKd: −log10 of the molar value.
observationType: pKd

molecule	pKd
CCC(C(=O)NC1CCCC1)N(C)Cc1ncc(C)[nH]1 (stereo not given)	~3.74
Cc1cc(N2CCC(NC(C)c3sccc3C)C2=O)n(C)n1 (stereo not given)	~5.52
O=CNc1ccccc1 [FORMANILIDE]	~4.10
Cc1cccc(C)c1NC(=O)CN1CCCC1c1ccccc1 (stereo not given)	~6.40

# query: pKd | item Cc1ccsc1C(Cc1ccccc1)NC(=O)Cn1cncn1 (stereo not given) | system: UniProtKB Q9H7B4
~3.89
